target: dsRBD3/4 I105A S106A S208A Q212A Q215A (Homo sapiens, UniProt O95793-2 102-274, I105A;S106A;S208A;Q212A;Q215A); test: fluorescence anisotropy
Sequence (O95793 183-355 I186A/S187A/S289A/Q293A/Q296A): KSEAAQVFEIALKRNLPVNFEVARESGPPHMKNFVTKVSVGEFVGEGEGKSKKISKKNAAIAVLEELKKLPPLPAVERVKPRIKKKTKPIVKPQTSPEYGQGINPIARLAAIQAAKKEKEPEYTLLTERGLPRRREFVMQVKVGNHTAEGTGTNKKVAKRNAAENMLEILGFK
OUTCOME_MEASURE: Kd (nM)
Give bare numbers, in nM.

What the record says about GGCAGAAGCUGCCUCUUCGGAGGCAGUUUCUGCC (structured_RNA) [top 2/3 ARF1 SBS (sARF1 SBS)] : Kd is 43.7
